experiment: Pharmacokinetic assay in SD rats (plasma and brain tissue); type: in vivo; settings: rat, po; Plasma, male SD rats, p.o. 5 mg/kg; read-out: Plasma concentration Cmax
recorded metric: Cmax (ng/mL)
Express your answer in ng/mL, writing the number without its unit.

Challenge: Give the value of Cmax reported for the following: C[C@@H]1c2nnc(-c3nc(Cl)ns3)n2CCN1C(=O)c1ccc(Cl)cc1
Response given: 930

Challenge: Give the value of Cmax reported for the following: C[C@@H]1c2nnc(-c3nc4cnc(Cl)cc4s3)n2CCN1C(=O)c1ccc(F)cc1
Response given: 4000

Challenge: Give the value of Cmax reported for the following: [2H]c1cc(C(=O)N2CCn3c(-c4nc(Cl)ns4)nnc3[C@H]2C)ccc1F
Response given: 1170

Challenge: Give the value of Cmax reported for the following: C[C@@H]1c2nnc(-c3nc4cc(F)c(F)cc4s3)n2CCN1C(=O)c1ccc(F)cc1
Response given: 2300

###

Give MRT for every item shown.
experiment: Pharmacokinetic assay in SD rats (plasma and brain tissue); format: in vivo; conditions: rat, po; Plasma, male SD rats, p.o. 5 mg/kg; read-out: Mean residence time MRT
# number then unit; no other words

Challenge: Give the value of MRT reported for the following: C[C@@H]1c2nnc(-c3nc(Cl)ns3)n2CCN1C(=O)c1ccc(Cl)cc1 [Example 57]
Response given: 4.8 h

Challenge: Give the value of MRT reported for the following: [2H]c1cc(C(=O)N2CCn3c(-c4nc(Cl)ns4)nnc3[C@H]2C)ccc1F [Example 56]
Response given: 5.1 h

###

target: NK3 receptors (Homo sapiens, UniProt P29371); construct: expressed in transfected cells; assay: Calcium ion fluidity (FLIPR) in cells with stable expression of NK3 receptors; assay type: cell-based; settings: calcium signal, antagonist mode, read-out: NK3R IC50 (nM) FLIPR
Sequence (P29371 whole entry): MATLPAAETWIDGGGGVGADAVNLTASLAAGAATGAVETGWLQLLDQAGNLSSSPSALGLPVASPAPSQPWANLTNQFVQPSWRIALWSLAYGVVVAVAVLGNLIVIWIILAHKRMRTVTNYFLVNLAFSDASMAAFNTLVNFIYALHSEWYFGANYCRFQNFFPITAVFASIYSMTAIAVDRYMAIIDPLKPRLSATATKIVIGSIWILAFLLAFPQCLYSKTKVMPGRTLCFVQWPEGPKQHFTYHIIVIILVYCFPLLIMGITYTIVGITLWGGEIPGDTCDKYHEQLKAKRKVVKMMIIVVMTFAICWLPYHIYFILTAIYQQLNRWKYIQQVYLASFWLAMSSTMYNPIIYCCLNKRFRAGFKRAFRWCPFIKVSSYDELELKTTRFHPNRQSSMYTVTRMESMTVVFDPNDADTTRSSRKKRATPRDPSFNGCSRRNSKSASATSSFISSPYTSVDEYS
recorded metric: IC50

Challenge: Give the value of IC50 reported for the following: C[C@@H]1c2nnc(-c3nc4sccc4s3)n2CCN1C(=O)c1ccc(Cl)cc1
Response given: 224 nM

Challenge: Give the value of IC50 reported for the following: [2H]c1c([2H])c(C(=O)N2CCn3c(-c4nc(Cl)ns4)nnc3[C@H]2C)c([2H])c([2H])c1F
Response given: 219 nM

Challenge: Give the value of IC50 reported for the following: C[C@@H]1c2nnc(-c3nc(Br)ns3)n2CCN1C(=O)c1ccc(F)cc1
Response given: 78.4 nM

Challenge: Give the value of IC50 reported for the following: C[C@@H]1c2nnc(-c3nc4sccc4s3)n2CCN1C(=O)c1ccc(F)cc1
Response given: 298 nM

Challenge: Give the value of IC50 reported for the following: Cc1ccc2nc(-c3nnc4n3CCN(C(=O)c3ccc(F)cc3)[C@@H]4C)sc2c1
Response given: 45.6 nM

Challenge: Give the value of IC50 reported for the following: [2H]c1cc(C(=O)N2CCn3c(-c4nc5ccc(Cl)cc5s4)nnc3[C@H]2C)ccc1Cl
Response given: 32.5 nM

Challenge: Give the value of IC50 reported for the following: C[C@@H]1c2nnc(-c3nc4ccccc4s3)n2CCN1C(=O)c1ccc(Cl)c(Cl)c1
Response given: 61.3 nM

Challenge: Give the value of IC50 reported for the following: C[C@@H]1c2nnc(-c3nc4ccc(F)cc4s3)n2CCN1C(=O)c1ccc(Cl)cc1
Response given: 71.6 nM

Challenge: Give the value of IC50 reported for the following: Cc1cccc2sc(-c3nnc4n3CCN(C(=O)c3ccc(F)cc3)[C@@H]4C)nc12
Response given: 73.3 nM

###

Give Tmax for every item shown.
assay: Pharmacokinetic assay in SD rats (plasma and brain tissue); type: in vivo; details: rat, po; Plasma, male SD rats, p.o. 5 mg/kg; read-out: Peak time tmax
Express your answer in h, writing the number without its unit.

Challenge: Give the value of Tmax reported for the following: C[C@@H]1c2nnc(-c3nc(Cl)ns3)n2CCN1C(=O)c1ccc(Cl)cc1 [Example 57]
Response given: 2

Challenge: Give the value of Tmax reported for the following: C[C@@H]1c2nnc(-c3nc4cc(F)c(F)cc4s3)n2CCN1C(=O)c1ccc(F)cc1 [Example 17]
Response given: 6

Challenge: Give the value of Tmax reported for the following: [2H]c1cc(C(=O)N2CCn3c(-c4nc(Cl)ns4)nnc3[C@H]2C)ccc1F [Example 56]
Response given: 2

Challenge: Give the value of Tmax reported for the following: C[C@@H]1c2nnc(-c3nc4cnc(Cl)cc4s3)n2CCN1C(=O)c1ccc(F)cc1 [Example 37]
Response given: 8

###

Molecular target: NK3 receptors (Homo sapiens, UniProt P29371)
Construct: expressed in transfected cells
Test: Antagonism of IP1 in HEK293 cells with stable expression of NK3
Type: cell-based
Settings: agonist Senktide 3 nM, read-out: NK3R IC50 (nM) IP1
Description: Determination of the Effect of the Compounds of the Present Invention on IP1 in HEK293 Cells with Stable Expression of NK3 The objective of this test example was to determine the antagonism effect of the compounds on the activity of HEK293-NK3 cells. 3. Experimental Methods: • 1. […] The plate was read by using EnVision Multilabel Reader, and data were collected at the same time. The fluorescence signal ratio (Ratio) was read and collected by EnVision Multilabel Reader. […]
Give IC50 for every item shown.
Express your answer in nM, writing the number without its unit.

Challenge: Give the value of IC50 reported for the following: [2H]c1cc(C(=O)N2CCn3c(-c4nc5cc(F)c(F)cc5s4)nnc3[C@H]2C)ccc1F
Response given: 92.3

Challenge: Give the value of IC50 reported for the following: COc1ccc2nc(-c3nnc4n3CCN(C(=O)c3ccc(Cl)cc3)[C@@H]4C)sc2c1
Response given: 187

Challenge: Give the value of IC50 reported for the following: [2H]c1cc(C(=O)N2CCn3c(-c4nc5ccc(Cl)cc5s4)nnc3[C@H]2C)ccc1F
Response given: 16

Challenge: Give the value of IC50 reported for the following: [2H]c1cc(C(=O)N2CCn3c(-c4nc(Cl)ns4)nnc3[C@H]2C)ccc1F
Response given: 76
